- Tested on: HCT116 colectal cancer cell
- EXPERIMENTAL DETAILS: MTT anti-proliferative assay, HCT116
- Format: cell-based, human
- PROTOCOL CONDITIONS: MTT, 48 h; read-out: IC50 HCT-116
ASSAY ENDPOINT: IC50

{"SMILES TEXT": "N#C/C(=C\\c1ccc(N2CCCC2)cc1)c1ccc(OC(F)(F)F)cc1", "IC50": "30.8 µM"}
{"SMILES TEXT": "Cc1ccc(/C(C#N)=C/c2ccc(N(C)C)cc2)cc1", "IC50": "> 100 µM"}
{"SMILES TEXT": "N#C/C(=C\\c1ccco1)c1ccc(OC(F)(F)F)cc1", "IC50": "> 100 µM"}
{"SMILES TEXT": "N#C/C(=C\\c1ccc(/C=C(\\C#N)c2ccc(C(F)(F)F)cc2)cc1)c1ccc(C(F)(F)F)cc1", "IC50": "> 100 µM"}
{"SMILES TEXT": "COc1cccc(/C=C(\\C#N)c2ccc(OC(F)(F)F)cc2)c1", "IC50": "> 100 µM"}

Dear colleague, could you send me IC50 for each of the items below? Thanks.
1. CCCCOc1ccc(/C=C(\C#N)c2ccc(OC(F)(F)F)cc2)cc1
2. CCN(CC)c1ccc(/C=C(\C#N)c2ccc(OC)cc2)cc1
3. N#C/C(=C\c1ccccc1)c1ccc(C(F)(F)F)cc1
4. Cc1ccc(/C=C(\C#N)c2ccccc2OC(F)(F)F)cc1

Reply text:
> 100 µM
> 100 µM
> 100 µM
> 100 µM

Dear colleague, could you send me IC50 for each of the items below? Thanks.
1. Cc1ccc(/C=C(\C#N)c2cccc(OC(F)(F)F)c2)cc1
2. CN(C)c1ccc(/C=C(\C#N)c2ccc(OC(F)(F)F)cc2)cc1
3. N#C/C(=C\c1ccc(/C=C/C(=O)c2ccc(F)cc2)cc1)c1ccc(OC(F)(F)F)cc1

Reply text:
25 µM
8.7 µM
22.9 µM

Dear colleague, could you send me IC50 for each of the items below? Thanks.
1. CCCCCOc1ccc(/C=C(\C#N)c2ccc(OC(F)(F)F)cc2)cc1
2. COc1cccc(/C=C(\C#N)c2ccc(C(F)(F)F)cc2)c1
3. N#C/C(=C\c1ccc(Oc2ccccc2)cc1)c1ccc(C(F)(F)F)cc1

Reply text:
["> 100 µM", "33.2 µM", "> 100 µM"]

* * *

- Test system: BEL-7402 liver cancer cell
- EXPERIMENTAL DETAILS: MTT anti-proliferative assay, BEL-7402
- Type: cell-based, human
Kindly supply the reported SI (selectivity index), IC50 (L-02)/IC50 (BEL-7402) values for the records listed here.

Please review the entries below; each comes with its answer.
{"COMPOUND": "CN(C)c1ccc(/C=C(\\C#N)c2ccc(OC(F)(F)F)cc2)cc1 [Compound 1a2h]", "ASSAY VALUE": "> 4.1"}
{"COMPOUND": "N#C/C(=C\\c1ccc(Br)cc1)c1cccc(OC(F)(F)F)c1 [Compound 1b2d]", "ASSAY VALUE": "> 3.4"}
{"COMPOUND": "COc1ccc(/C=C(\\C#N)c2ccccc2OC(F)(F)F)cc1 [Compound 1c2e]", "ASSAY VALUE": "> 3.3"}

Dear colleague, could you send me SI (selectivity index), IC50 (L-02)/IC50 (BEL-7402) for each of the items below? Thanks.
1. N#C/C(=C\c1ccc(F)cc1)c1cccc(OC(F)(F)F)c1 [Compound 1b2b]
2. CCN(CC)c1ccc(/C=C(\C#N)c2cc(OC)c(OC)c(OC)c2)cc1 [Compound 1g2b]
3. Cc1ccc(/C=C(\C#N)c2cccc(OC(F)(F)F)c2)cc1 [Compound 1b2e]
4. N#C/C(=C\c1ccc(N2CCOCC2)cc1)c1cccc(OC(F)(F)F)c1 [Compound 1b2i]
5. CCN(CC)c1ccc(/C=C(\C#N)c2ccc(C)cc2)cc1 [Compound 1d2b]

Reply text:
1. > 5.2
2. > 3333
3. > 1.3
4. > 2.1
5. > 1.5

Inquiry: Enter reported SI (selectivity index), IC50 (L-02)/IC50 (BEL-7402) observed with BEL-7402 liver cancer cell for CN(C)c1ccc(/C=C(\C#N)c2cccc(OC(F)(F)F)c2)cc1 [Compound 1b2h]
Reply text: > 50.5

* * *

- Test system: SGC-7901 early differentiation gastric cancer cell
- EXPERIMENTAL DETAILS: MTT anti-proliferative assay, SGC-7901
- Assay type: cell-based, human
- PROTOCOL CONDITIONS: MTT, 48 h
pIC50: −log10 of the molar value.
ASSAY ENDPOINT: pIC50

Please review the entries below; each comes with its answer.
{"SMILES TEXT": "N#C/C(=C\\c1ccc(Br)cc1)c1ccc(C(F)(F)F)cc1", "pIC50": "< 4.00"}
{"SMILES TEXT": "N#C/C(=C\\c1ccccn1)c1cccc(OC(F)(F)F)c1", "pIC50": 4.68}
{"SMILES TEXT": "COc1ccc(/C(C#N)=C/c2ccc(N(C)C)cc2)cc1", "pIC50": 4.65}
{"SMILES TEXT": "N#C/C(=C\\c1c(F)cccc1Cl)c1ccc(C(F)(F)F)cc1", "pIC50": "< 4.00"}
{"SMILES TEXT": "Cc1ccc(/C(C#N)=C/c2ccc(N(C)C)cc2)cc1", "pIC50": "< 4.00"}
{"SMILES TEXT": "N#C/C(=C\\c1cccs1)c1ccc(OC(F)(F)F)cc1", "pIC50": 4.24}

Dear colleague, could you send me pIC50 for each of the items below? Thanks.
1. N#C/C(=C\c1ccc(C(F)(F)F)cc1)c1ccc(C(F)(F)F)cc1
2. N#C/C(=C\c1ccc(F)cc1)c1cccc(OC(F)(F)F)c1
3. N#C/C(=C\c1ccc(N2CCOCC2)cc1)c1cccc(OC(F)(F)F)c1
4. CCN(CC)c1ccc(/C=C(\C#N)c2ccc(OC)cc2)cc1

Reply text:
["< 4.00", 5.27, 4.34, "< 4.00"]

* * *

- System: AGS gastric cancer cell
- EXPERIMENTAL DETAILS: MTT anti-proliferative assay, AGS
- Assay type: cell-based, human
- PROTOCOL CONDITIONS: MTT, 48 h
Kindly supply the reported pIC50 values for the records listed here.
Answers are plain numbers, as −log10 of the molar value.

{"SMILES TEXT": "N#C/C(=C\\c1ccccc1Br)c1ccc(C(F)(F)F)cc1", "ASSAY ENDPOINT": "pIC50", "ASSAY VALUE": 4.38}
{"SMILES TEXT": "Cc1ccc(/C=C(\\C#N)c2cccc(OC(F)(F)F)c2)cc1", "ASSAY ENDPOINT": "pIC50", "ASSAY VALUE": 5.35}
{"SMILES TEXT": "CCc1ccc(/C=C(\\C#N)c2ccc(OC(F)(F)F)cc2)cc1", "ASSAY ENDPOINT": "pIC50", "ASSAY VALUE": 4.84}

Dear colleague, could you send me pIC50 for each of the items below? Thanks.
1. N#C/C(=C\c1ccc(Cl)cc1)c1ccccc1OC(F)(F)F
2. Cc1cccc(/C=C(\C#N)c2ccc(C(F)(F)F)cc2)c1
3. N#C/C(=C\c1ccc(Cl)cc1)c1ccc(OC(F)(F)F)cc1
4. N#C/C(=C\c1ccc(C(F)(F)F)cc1)c1ccc(C(F)(F)F)cc1

Reply text:
1. 4.50
2. 4.39
3. 4.73
4. 4.27

* * *

- Test system: SGC-7901 early differentiation gastric cancer cell
- EXPERIMENTAL DETAILS: MTT anti-proliferative assay, SGC-7901
- Assay type: cell-based, human
- PROTOCOL CONDITIONS: MTT, 48 h
Kindly supply the reported pIC50 values for the records listed here.
One number for each entry, as −log10 of the molar value.

{"SMILES TEXT": "COc1ccc(/C=C(\\C#N)c2cccc(OC(F)(F)F)c2)cc1", "ASSAY ENDPOINT": "pIC50", "ASSAY VALUE": 4.14}
{"SMILES TEXT": "N#C/C(=C\\c1ccc(Cl)cc1)c1ccc(OC(F)(F)F)cc1", "ASSAY ENDPOINT": "pIC50", "ASSAY VALUE": 4.25}
{"SMILES TEXT": "COc1ccc(/C=C(\\C#N)c2ccccc2OC(F)(F)F)cc1", "ASSAY ENDPOINT": "pIC50", "ASSAY VALUE": 5.11}
{"SMILES TEXT": "COc1ccc(/C(C#N)=C/c2cc(OC)c(OC)c(OC)c2)cc1", "ASSAY ENDPOINT": "pIC50", "ASSAY VALUE": 4.42}
{"SMILES TEXT": "CN(C)c1ccc(/C=C(\\C#N)c2ccc(OC(F)(F)F)cc2)cc1", "ASSAY ENDPOINT": "pIC50", "ASSAY VALUE": 4.71}

Dear colleague, could you send me pIC50 for each of the items below? Thanks.
1. N#C/C(=C\c1ccc(N2CCCC2)cc1)c1ccc(OC(F)(F)F)cc1
2. CCc1ccc(/C=C(\C#N)c2ccc(OC(F)(F)F)cc2)cc1
3. Cc1ccc(/C=C(\C#N)c2cccc(OC(F)(F)F)c2)cc1
4. N#C/C(=C\c1ccc(/C=C/C(=O)c2ccc(F)cc2)cc1)c1ccc(OC(F)(F)F)cc1

Reply text:
1. 4.24
2. 4.11
3. 5.09
4. 4.65
